Target: T1, CD22 on cynomolgus monkey peripheral blood B cells (cynomolgus monkey (Macaca fascicularis))
T1 construct: whole, on cells; also called cynomolgus monkey B cells
Assay: FACS, cynomolgus PBMC, CD20+ B cells, antibody 1 nM
PROPERTY LABEL: Proportion of chimeric antibody positive cells to B cells (%)
Write the value in % as a bare number.

Entry F1.120.15 (antibody, human IgG1, kappa, V domains shown, human-murine chimeric IgG1 kappa) VH: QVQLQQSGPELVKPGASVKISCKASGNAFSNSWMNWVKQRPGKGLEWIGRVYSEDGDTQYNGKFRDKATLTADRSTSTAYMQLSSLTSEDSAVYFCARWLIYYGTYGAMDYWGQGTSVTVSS VL: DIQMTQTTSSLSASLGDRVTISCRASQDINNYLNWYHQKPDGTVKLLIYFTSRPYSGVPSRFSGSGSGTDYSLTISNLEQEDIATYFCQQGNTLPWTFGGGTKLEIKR : reported Proportion of chimeric antibody positive cells to B cells (%) = ?
27

Entry F2.55.1 (antibody, human IgG1, lambda, V domains shown, human-murine chimeric IgG1 lambda; VL name legible) VH: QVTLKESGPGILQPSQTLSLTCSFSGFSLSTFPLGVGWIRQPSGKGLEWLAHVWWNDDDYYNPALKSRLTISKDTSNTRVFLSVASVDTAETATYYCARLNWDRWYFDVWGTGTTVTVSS VL: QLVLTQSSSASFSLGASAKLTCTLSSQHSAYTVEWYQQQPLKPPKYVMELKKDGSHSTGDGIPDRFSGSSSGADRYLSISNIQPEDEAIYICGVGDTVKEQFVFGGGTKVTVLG : reported Proportion of chimeric antibody positive cells to B cells (%) = ?
22

Numbers sourced from patent US20240084003A1.
